# MEASURED_ON: UniProt:Q96P20
# TEST_METHOD_NOTES: THP-1 cells pyroptosis assay (LPS priming, nigericin, resazurin read-out)
# Assay type: cell-based
# Set-up: Seed THP-1 cells (25,000 cells/well) containing 1.0 μg/ml LPS in 40 μl of RPMI medium; host or cells: THP-1 cells, LPS-primed, nigericin-stimulated
# RUN_CONDITIONS: 1.0 μg/ml LPS, 3 hrs compound, nigericin 5 μM 1 hr
OBSERVED_PROPERTY: IC50

Query: Need IC50, item O=C(OCc1ccccc1)c1nnc(Nc2c3c(cc4c2CCC4)CCC3)[nH]1
Response: ≤ 5 µM

New cases:
Query: For the compound shown here, COC(=O)c1nnc(Nc2c(-c3ccnc(OC4CCN(C)CC4)c3)ccc3c2CCC3)[nH]1 , give the reported IC50.
Response: ≤ 10 µM

Query: What does the data say about its IC50? Entry: O=C(OCc1cccnc1)c1nnc(Nc2c3c(cc4c2CCC4)CCC3)[nH]1
Response: ≤ 10 µM

Query: Data request, read-out IC50, for CCOC(=O)c1nnc(Nc2c3c(cc4c2CCC4)CCC3)[nH]1
Response: ≤ 2 µM

Query: Need IC50, item CC(C)OC(=O)c1nnc(Nc2c3c(cc4c2CCC4)CCC3)[nH]1
Response: ≤ 10 µM

* * *

# MEASURED_ON: NLRP3 (Homo sapiens)
# Sequence (Q96P20 whole entry): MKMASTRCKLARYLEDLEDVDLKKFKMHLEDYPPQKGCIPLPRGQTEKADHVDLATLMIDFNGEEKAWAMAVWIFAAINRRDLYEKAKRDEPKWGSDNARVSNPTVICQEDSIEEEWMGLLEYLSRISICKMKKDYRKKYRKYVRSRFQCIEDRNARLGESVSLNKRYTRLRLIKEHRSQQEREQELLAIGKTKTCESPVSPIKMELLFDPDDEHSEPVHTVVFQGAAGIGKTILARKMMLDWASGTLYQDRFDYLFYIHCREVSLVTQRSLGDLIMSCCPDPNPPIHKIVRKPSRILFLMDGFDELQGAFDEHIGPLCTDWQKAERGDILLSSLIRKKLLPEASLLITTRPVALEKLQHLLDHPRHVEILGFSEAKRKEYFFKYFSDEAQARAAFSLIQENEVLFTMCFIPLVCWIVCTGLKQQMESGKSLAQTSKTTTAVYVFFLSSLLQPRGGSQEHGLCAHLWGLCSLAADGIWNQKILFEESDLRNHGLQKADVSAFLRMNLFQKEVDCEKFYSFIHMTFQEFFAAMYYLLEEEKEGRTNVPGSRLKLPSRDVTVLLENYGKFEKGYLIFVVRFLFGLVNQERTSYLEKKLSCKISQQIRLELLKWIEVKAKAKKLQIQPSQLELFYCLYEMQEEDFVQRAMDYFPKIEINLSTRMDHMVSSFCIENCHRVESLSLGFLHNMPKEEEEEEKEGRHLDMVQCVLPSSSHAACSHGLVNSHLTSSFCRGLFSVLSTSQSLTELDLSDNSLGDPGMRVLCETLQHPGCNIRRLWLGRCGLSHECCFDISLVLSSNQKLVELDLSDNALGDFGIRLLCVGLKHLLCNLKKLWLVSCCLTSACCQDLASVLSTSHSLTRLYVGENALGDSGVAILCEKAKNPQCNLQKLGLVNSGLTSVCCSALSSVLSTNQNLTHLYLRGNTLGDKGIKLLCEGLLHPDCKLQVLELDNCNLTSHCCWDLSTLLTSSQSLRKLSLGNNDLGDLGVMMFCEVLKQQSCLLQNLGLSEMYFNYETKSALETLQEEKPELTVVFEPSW
# TEST_METHOD_NOTES: THP-1 cells pyroptosis assay (LPS priming, nigericin, resazurin read-out)
# Assay type: cell-based
# Parameters: Seed THP-1 cells (25,000 cells/well) containing 1.0 μg/ml LPS in 40 μl of RPMI medium; host or cells: THP-1 cells, LPS-primed, nigericin-stimulated
# RUN_CONDITIONS: 1.0 μg/ml LPS, 3 hrs compound, nigericin 5 μM 1 hr
pIC50: −log10 of the molar value.
Collected pIC50 values appear next to each entry.

Here's what some known entries look like.
Query: Quick check: pIC50 of COC(=O)c1nnc(Nc2c3c(cc(C)c2-c2ccnc(OC)c2)CCC3)[nH]1 ?
Response: ≥ 5.30

Query: Param item = COC(=O)c1nnc(Nc2c3c(cc4c2CCC4)CCC3)[nH]1 ; retrieve measured pIC50.
Response: ≥ 5.70

Query compound follows.
Query: // returns reported pIC50 for input CCOC(=O)c1nnc(Nc2c(-c3ccnc(OC)c3)ccc3c2CCC3)[nH]1
Response: ≥ 5.30
